settings: buffer; pH 7.4; 200.0 µM
Field: solubility kinetic. Provide a value for each of the compounds that follow.

Fill in the blank: the reported solubility kinetic of COCC(C)n1c(C)cc(C(=O)COC(=O)c2nn(C)c(=O)c3ccccc23)c1C (stereo not drawn) is ____.
> 0.0617 mg/mL

Same thing, different compound: COCCNc1ncnc2c1nc1n2CCCC1
> 0.0371 mg/mL

Same thing, different compound: Cc1onc(-c2ccccc2)c1C(=O)NCc1cccc(Cl)c1
0.0011 mg/mL

Same thing, different compound: Cc1ccc(C(=O)NCCNC(=O)c2ccc(F)cc2)cn1
> 0.0452 mg/mL

Same thing, different compound: Cc1cccc(C)c1OCC(=O)Nc1ccccc1N1CCCCC1
< 0.0004 mg/mL

Same thing, different compound: Cc1cccc(S(=O)(=O)Nc2cc(Cl)ccc2N2CCOCC2)c1
0.0036 mg/mL

Same thing, different compound: O=C(Cc1ccccc1)Oc1coc(CSc2ncccn2)cc1=O
> 0.0532 mg/mL

Same thing, different compound: N#C/C(=C\c1ccccc1C(=O)O)c1nc2ccccc2[nH]1
> 0.0434 mg/mL

Same thing, different compound: Cn1cccc1C(=O)NC(=O)COC(=O)c1ccc(S(C)(=O)=O)c([N+](=O)[O-])c1
0.0147 mg/mL

Same thing, different compound: Cc1cnc(NC(=O)c2cc(S(=O)(=O)N(C)C)ccc2N2CCCC2)s1
0.0047 mg/mL

Same thing, different compound: O=C(OCC(=O)c1ccc[nH]1)c1ccc(Cl)c(Cl)c1
0.0068 mg/mL

Same thing, different compound: O=C(OCc1c(F)cccc1Cl)c1cnc2ccccc2n1
0.0018 mg/mL

Same thing, different compound: COCCCn1c(=O)c2ccccc2n(Cc2ccccc2C)c1=O
> 0.0508 mg/mL

Same thing, different compound: O=C1CC(c2ccccc2)CC(O)=C1C=NCCc1ccccc1 (stereo not drawn)
0.0021 mg/mL

Same thing, different compound: N#Cc1c(N2C(=O)c3ccc(C(=O)O)cc3C2=O)sc2c1CCCC2
> 0.0529 mg/mL

Same thing, different compound: Cc1ccc(/C=N/N2CCOCC2)s1
> 0.0315 mg/mL

Same thing, different compound: Cc1cc(Nc2ccc(O)cc2)n2c(nc3ccccc32)c1C#N
0.0009 mg/mL

Same thing, different compound: Cc1ccc(S(=O)(=O)NCCC(=O)Nc2cccc(S(=O)(=O)N3CCCC3)c2)cc1C
0.0305 mg/mL

Same thing, different compound: CS(=O)(=O)N1CCc2nc(-c3ccccc3)sc2C1
0.0104 mg/mL

Same thing, different compound: CCOC(=O)c1cnc2c(ccc3ccccc32)c1N
< 0.0003 mg/mL

Same thing, different compound: c1cncc(C2OCC3(CO2)COC(c2cccnc2)OC3)c1 (stereo not drawn)
> 0.0472 mg/mL

Same thing, different compound: O=[N+]([O-])c1cccc(S(=O)(=O)c2cccc([N+](=O)[O-])c2)c1
0.0004 mg/mL

Same thing, different compound: CC1=CCC(C(=O)O)C(C(=O)Nc2ccc(-c3nc4ccc(C)cc4s3)cc2)C1 (stereo not drawn)
> 0.061 mg/mL

Same thing, different compound: O=C(NCc1cccnc1)Nc1cccc([N+](=O)[O-])c1
> 0.0408 mg/mL

Same thing, different compound: C=CCOc1c(Cl)cc(CNc2nccs2)cc1OC
0.0381 mg/mL

Same thing, different compound: COc1ccc(C)cc1S(=O)(=O)n1c([N+](=O)[O-])cnc1C
> 0.0467 mg/mL

Same thing, different compound: CCc1cccc(NC(=S)Nc2cccc3ccccc23)c1
0.0038 mg/mL

Same thing, different compound: O=C(O)C1CCCNC1 (stereo not drawn)
0.0004 mg/mL

Same thing, different compound: Cc1ccc(-c2nc(Cl)nc3ccccc23)cc1
0.0017 mg/mL

Same thing, different compound: CC(C)(CC(=O)O)CC(=O)NCc1c(Cl)cccc1Oc1ccccc1
> 0.0564 mg/mL

Same thing, different compound: COc1ccccc1CNC(=O)COC(=O)Cn1cnc2ccccc21
0.0383 mg/mL

Same thing, different compound: CN1CCN(c2ccc(CNS(=O)(=O)Cc3ccc(Cl)cc3)cc2)CC1
0.0028 mg/mL

Same thing, different compound: S=C1NCN(Cc2ccccc2)CN1
> 0.0311 mg/mL

Same thing, different compound: OC(CNC1Cc2ccccc2C1)COc1ccc(Cl)cc1 (stereo not drawn)
> 0.0477 mg/mL

Same thing, different compound: CCc1nc2c(c(=O)[nH]1)C(CC)(CC)Cc1ccccc1-2
0.0007 mg/mL

Same thing, different compound: O=C(NC1CCCCCCC1)c1cc([N+](=O)[O-])ccc1Cl
0.0085 mg/mL

Same thing, different compound: Cc1ccc(C(=O)NCc2ccco2)cc1
> 0.0323 mg/mL

Same thing, different compound: Clc1ccccc1-c1nc(-c2ccc(Br)o2)no1
< 0.0003 mg/mL

Same thing, different compound: O=C(NCc1ccccc1)c1c(O)c2ccccc2[nH]c1=O
< 0.0003 mg/mL

Same thing, different compound: O=C(Nc1nccs1)c1ccc(COc2ccccc2)o1
< 0.0003 mg/mL

Same thing, different compound: Cc1cc(=S)nc(-c2ccccn2)[nH]1
0.0286 mg/mL

Same thing, different compound: Cc1ccc(C2(c3ccc(C)cc3)NC(=O)N(CC(=O)NCCCN3CCCC3=O)C2=O)cc1
> 0.0694 mg/mL

Same thing, different compound: Cc1ccc(S(=O)(=O)N2CCCCC2)cc1NC(=O)c1cc(F)c(F)c(F)c1F
0.0047 mg/mL

Same thing, different compound: COCCSc1nc(N)c2c3c(sc2n1)CN(C)CC3
> 0.0466 mg/mL

Same thing, different compound: O=C(CN1C(=O)C2(OCCO2)c2cc(Br)ccc21)NO
0.0467 mg/mL

Same thing, different compound: O=C1COc2ccc(S(=O)(=O)N3CCCC3)cc2N1
> 0.0423 mg/mL

Same thing, different compound: CCOC(=O)C1(Cc2cccc(F)c2)CCN(C(=O)C2CCC2)CC1
> 0.0521 mg/mL

Same thing, different compound: C=CCNC(=S)Nc1sc2c(c1C(N)=O)CCCC2
0.0182 mg/mL

----------
conditions: buffer; pH 7.4; 200.0 µM
Field: solubility kinetic. Provide a value for each of the molecules that follow.

Fill in the blank: the reported solubility kinetic of CCC(Oc1ccccc1OC)C(=O)Nc1ccc2c(c1)n(C)c(=O)n2C (configuration not stated) is ____.
> 55.4 µg/mL

Same thing, different molecule: O=C(O)CC1(CC(=O)Nc2ccc(F)cc2F)CCCCC1
> 46.7 µg/mL

Same thing, different molecule: O=C1CC(Cc2ccccc2)C(=O)N1c1ccccn1 (configuration not stated)
> 39.9 µg/mL

Same thing, different molecule: COc1ccccc1CN1CCN(Cc2nc(-c3ccccc3)no2)CC1
50.1 µg/mL

Same thing, different molecule: O=C(COC(=O)/C=C/c1ccc(Cl)cc1Cl)NCC1CCCO1 (configuration not stated)
10.4 µg/mL

Same thing, different molecule: NC(=O)COC(=O)c1ccc(-c2ccccc2)cc1
19.1 µg/mL

Same thing, different molecule: O=C(COC(=O)C12CC3CC(CC(O)(C3)C1)C2)Nc1ccc(Cl)c(S(=O)(=O)N2CCOCC2)c1
> 77 µg/mL

Same thing, different molecule: Nc1ccc(Oc2ncccn2)c(Cl)c1
> 33.2 µg/mL

Same thing, different molecule: Cc1cc(Cl)cc(C)c1OCCCCCn1ccnc1
30.7 µg/mL

Same thing, different molecule: CCOC(=O)c1csc(NC(=O)c2ccc(C#N)cc2)n1
1 µg/mL

Same thing, different molecule: Cc1ccc(S(=O)(=O)c2ccc([N+](=O)[O-])cn2)cc1
21 µg/mL

Same thing, different molecule: Cc1ccc(S(=O)(=O)N2CCC[C@H]2C(=O)NCc2ccccc2Cl)cc1
> 58.9 µg/mL

----------
Field: solubility kinetic. Provide a value for each of the compounds that follow.
settings: buffer; pH 7.4; 200.0 µM
State the answer as a number, implicitly in mg/mL.

Fill in the blank: the reported solubility kinetic of CC1CCC(NS(=O)(=O)c2ccc3c(c2)CC(=O)N3)CC1 (configuration not stated) is ____.
0.0273

Same thing, different compound: C=CCOc1cccc(CNCc2ccncc2)c1
0.028

Same thing, different compound: CCCNC(=O)CN1CCC(c2nc3ccccc3[nH]2)CC1
0.034

Same thing, different compound: COc1ccccc1NC(=O)c1ccc([N+](=O)[O-])o1
0.0368

Same thing, different compound: COc1ccc(/C=C(\C#N)C(=O)NCc2ccccc2)cc1
0.0022

----------
Field: log10 solubility kinetic. Provide a value for each of the compounds that follow.
conditions: buffer; pH 7.4; 200.0 µM
Note: values are log10 of solubility kinetic expressed in µg/mL.

Fill in the blank: the reported log10 solubility kinetic of c1ccc(CNc2nc(-c3ccccc3)nc3ccccc23)cc1 is ____.
0.08

Same thing, different compound: CN(Cc1nc(-c2cnccn2)no1)Cc1cccc2ccccc12
1.69

Same thing, different compound: Cc1cccc(-c2cc(C(=O)Nc3ccncc3)c3ccccc3n2)c1
-0.10

Same thing, different compound: NC(=O)COC(=O)CNC(=O)c1sc2ccccc2c1Cl
1.65

Same thing, different compound: CSc1nccc(Oc2ccccc2Cl)n1
0.83

Same thing, different compound: Cc1csc(NC(=O)COc2ccc3c(c2)CCC3)n1
0.84

Same thing, different compound: COc1ccc(NC(=O)c2oc3ccccc3c2C)cn1
0.60

Same thing, different compound: COc1cc(OC)c(C2Nc3cccc4cccc(c34)N2)c(OC)c1
0.64

Same thing, different compound: COc1cccc(S(=O)(=O)N2CCN(C(=O)c3ccco3)CC2)c1
1.71

Same thing, different compound: O=C(O)c1ccc(N/C(=N\S(=O)(=O)c2ccc(Cl)cc2)c2ccccc2)cc1
1.75

Same thing, different compound: Cc1ccc(NC(=O)CCCNC(=O)c2ccc(Cl)cc2)c(O)c1
1.12

Same thing, different compound: COc1ccc(NC(=O)CCSCCc2ccccn2)cc1OC
1.69

Same thing, different compound: Clc1ccc(/C=C/c2ncc[nH]2)c(Cl)c1
0.89

Same thing, different compound: O=Cc1cn(CCOc2ccccc2F)c2ccccc12
1.11

Same thing, different compound: O=C(Nc1nc2ccccc2[nH]1)c1ccccc1OC(F)F
0.95

Same thing, different compound: O=C(Nc1ccccc1)[C@@H]1CCCN1S(=O)(=O)c1ccc(Cl)cc1
0.83

Same thing, different compound: COCCN(C(=S)Nc1ccc(C)cc1)C(C)c1ccco1 (stereo not given)
0.53

Same thing, different compound: CCC(C)[C@H](NC(=O)NCCC1=CCCCC1)C(=O)O (stereo not given in full)
1.58

Same thing, different compound: CSc1ccccc1NC(=O)COC(=O)/C=C/c1ccco1
1.23
